tested_on: Prothrombin (Bos taurus, UniProt P00735)
test_protocol: Bovine thrombin concentration at which clotting time was prolonged 2x over the control.
conditions: read-out: I50
Quick reference for IC50 among some compounds
For clarity, give the value followed by its unit.

> print(dat)
                                   compound  measured
1  CCC1CCN(C(=O)C(CCCN=C(N)N)NS(=O)(=O)c2ccc3ccccc3c2OC)CC1 (centres undefined)    0.4 µM
2  CCC1CCN(C(=O)C(CCCN=C(N)N)NS(=O)(=O)c2cccc3c(O)cccc23)CC1 (centres undefined)      6 µM
3  CC1CCN(C(=O)C(CCCNC(=N)N)NS(=O)(=O)c2cccc3c2CCCC3)CC1 (centres undefined)      1 µM
4  CCC1CCN(C(=O)C(CCCNC(=N)N)NS(=O)(=O)c2ccc3c(c2)OCCCO3)CC1 (centres undefined)      5 µM
5  CCC1CCN(C(=O)C(CCCN=C(N)N)NS(=O)(=O)c2ccc3c(c2)OCCO3)CC1 (centres undefined)     25 µM

Consider the compound CCCCN(C)C(=O)C(CCCN=C(N)N)NS(=O)(=O)c1cccc2ccccc12 (centres undefined) . State its measured IC50.
50 µM

Consider the compound CN(C)c1cccc2c(S(=O)(=O)NC(CCCNC(=N)N)C(=O)NCCc3ccccc3)cccc12 (centres undefined) . State its measured IC50.
150 µM

Consider the compound CCC1CCN(C(=O)C(CCCNC(=N)N)NS(=O)(=O)c2ccc3c(c2)Oc2ccccc2O3)CC1 (centres undefined) . State its measured IC50.
0.15 µM

Consider the compound CCC1CCN(C(=O)C(CCCN=C(N)N)NS(=O)(=O)c2ccc3ccc(O)cc3c2)CC1 (centres undefined) . State its measured IC50.
6 µM

====

tested_on: Prothrombin (Bos taurus, UniProt P00735)
test_protocol: Bovine thrombin concentration at which clotting time was prolonged 2x over the control.
conditions: read-out: I50
Quick reference for log10 of IC50 among some compounds
Values below are the log10 of the recorded IC50, with nM as the unit.

// known answers, use as guide
> print(dat)
                                   compound  measured
1  CN1CCN(C(=O)C(CCCN=C(N)N)NS(=O)(=O)c2cccc3c(N(C)C)cccc23)CC1 (configuration not stated)      3.30
2  CCC1CCN(C(=O)C(CCCNC(=N)N)NS(=O)(=O)c2ccc3ccc(OC)cc3c2)CC1 (configuration not stated)      2.00
3  CCC1CCN(C(=O)C(CCCN=C(N)N)NS(=O)(=O)c2cccc3c(N(CC)CC)cccc23)CC1 (configuration not stated)      2.48
4  CCC1CCN(C(=O)C(CCCNC(=N)N)NS(=O)(=O)c2cccc3c(N(C)C)cccc23)CC1 (configuration not stated)      2.00
5  CN(C)c1cccc2c(S(=O)(=O)NC(CCCNC(=N)N)C(=O)NC3CCCCC3)cccc12 (configuration not stated)      5.70

Now look at this one.
Give log10 of IC50 for CC(C)C1CCN(C(=O)C(CCCN=C(N)N)NS(=O)(=O)c2cccc3c(N(C)C)cccc23)CC1 (configuration not stated) tested on Prothrombin (Bos taurus, UniProt P00735).
3.00

====

Quick reference for pIC50 among some compounds
tested_on: Prothrombin (Bos taurus, UniProt P00735)
test_protocol: Bovine thrombin concentration at which clotting time was prolonged 2x over the control.
conditions: read-out: I50
To interpret pIC50, take it as minus log10 of a concentration measured in moles per litre.

// known answers, use as guide
> print(dat)
                                   compound  measured
1  COCCNC(=O)C(CCCNC(=N)N)NS(=O)(=O)c1cccc2c(N(C)C)cccc12 (centres undefined)      5.40
2  CN(C)c1cccc2c(S(=O)(=O)NC(CCCNC(=N)N)C(=O)N3CCC(C(C)(C)C)CC3)cccc12 (centres undefined)      5.70
3  CC1CCN(C(=O)C(CCCN=C(N)N)NS(=O)(=O)c2ccc3c(c2)CCCC3)CC1 (centres undefined)      6.22
4  N=C(N)NCCCC(NS(=O)(=O)c1cccc2ccccc12)C(=O)N1CCOCC1 (centres undefined)      4.70
5  CCC1CCN(C(=O)C(CCCN=C(N)N)NS(=O)(=O)c2ccc3c(c2)C(=O)c2ccccc2C3=O)CC1 (centres undefined)      5.82

Consider the compound CN(C)c1cccc2c(S(=O)(=O)NC(CCCN=C(N)N)C(=O)N3CCC(c4ccccc4)CC3)cccc12 (centres undefined) . State its measured pIC50.
4.00

Consider the compound CN(C)c1cccc2c(S(=O)(=O)NC(CCCNC(=N)N)C(=O)N3CCCCCCCC3)cccc12 (centres undefined) . State its measured pIC50.
5.70

Consider the compound CCC1CCN(C(=O)C(CCCN=C(N)N)NS(=O)(=O)c2ccc3ccc(C)cc3c2)CC1 (centres undefined) . State its measured pIC50.
6.40

Consider the compound N=C(N)NCCCC(NS(=O)(=O)c1cccc2c1CCCC2)C(=O)N1CCOCC1 (centres undefined) . State its measured pIC50.
5.19
